Origin of values: patent US20230303695A1

# target_system: T1, human IGSF8 expressed on the cell surface (human, UniProt Q969P0 28-613)
# T1 construct: whole, on cells; also called human IGSF8 on CT26 cells; IGSF8 on MC38 cells
# T1 sequence (looked up): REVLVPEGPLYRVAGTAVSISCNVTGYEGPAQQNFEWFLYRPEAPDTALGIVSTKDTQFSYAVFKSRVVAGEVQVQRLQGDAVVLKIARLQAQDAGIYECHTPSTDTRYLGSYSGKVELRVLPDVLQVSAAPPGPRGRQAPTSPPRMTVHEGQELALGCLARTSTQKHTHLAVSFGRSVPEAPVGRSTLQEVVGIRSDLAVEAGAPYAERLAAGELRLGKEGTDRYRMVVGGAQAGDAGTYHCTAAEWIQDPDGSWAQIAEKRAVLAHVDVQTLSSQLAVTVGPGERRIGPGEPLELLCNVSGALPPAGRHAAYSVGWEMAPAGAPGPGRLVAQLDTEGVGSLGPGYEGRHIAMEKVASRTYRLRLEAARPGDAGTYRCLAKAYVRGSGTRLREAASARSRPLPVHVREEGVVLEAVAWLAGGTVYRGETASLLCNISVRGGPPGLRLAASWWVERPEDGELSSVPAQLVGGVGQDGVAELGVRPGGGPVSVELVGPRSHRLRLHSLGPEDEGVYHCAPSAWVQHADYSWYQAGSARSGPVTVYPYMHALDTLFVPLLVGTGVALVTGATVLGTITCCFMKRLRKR
# protocol: FACS on CT26 cells expressing IGSF8
quantity: EC50 (µg/mL)
Answer format: numeric, µg/mL implied, no suffix.

L1-01 (antibody, V domains shown, Expressed in CHO cells; also called L1 antibody; L1-01-IgG1) VH: QVQLVESGGGVVQPGRSLRLSCAASGFTFSTYGMHWVRQAPGKGLEWVAVIWDDGSYKYYGDSVKGRFTISRDNSKNTLYLQMNSLRAEDTAVYYCARDGSGWGYAFDIWGQGTMVTVSS VL: DIQLTQSPSSLSASVGDRVTITCQASQDISEYLNWYQHKPGKAPNPLVFDAANLETGVPPRFSATGSGTDFSLTITSLQPEDFATYYCQQYDSFPYTFGQGTRLDIK | 0.206

Problem: Param item = L2-10 (antibody, V domains shown, also called L2-10-IgG1) VH: EVQLVESGGGLEQPGGSLRLSCAASGFTFRDYAMTWVRQAPGKGLEWVSSISGSGGSTYYADSVKGRFTISRDNSKNTLYLQMNSLRAEDTAIYYCARGEYSSGWPSWFDPWGQGTLVTVSS VL: DIQMTQSPSSLSASVGDRVTITCRASRTVGTFLNWYQQKPGKAPKALILHTSILEGGVPSRFSGSGSGTDFTLTISSLQPEDIATYYCQQSHDVPRTFGQGTKVEIK ; retrieve measured EC50.
Solution: 0.145

Problem: Param item = L1-20 (antibody, IgG1, V domains shown, also called L1-20-IgG1) VH: QVQLVESGGGVVQPGRSLRLSCAASGFTFSTYGMHWVRQAPGKGLEWVAVIWDDGSYKYYGDSVKGRFTISRDNSKNTLYLQMNSLRAEDTAVYYCARDGSGWGYAFDIWGQGTLVTVSS VL: DIQLTQSPSSLSASVGDRVTITCQASQDIEWWLNWYQQKPGKAPKLLIYGSPNLETGVPSRFSGSGSGTDFTFTISSLQPEDIATYYCQQYDSFPYTFGQGTKVEIK ; retrieve measured EC50.
Solution: 0.0537

Problem: Param item = L2-01 (antibody, V domains shown, Expressed in CHO cells; also called L2 antibody; L2-01-IgG1) VH: EVQLVESGGGLEQPGGSLRLSCAGSGFTFRDYAMTWVRQAPGKGLEWVSSISGSGGNTYYADSVKGRFTISRDNSKNTLYLQMNSLRAEDTAIYYCARGEYSSGWPSWFDPWGQGTLVTVSS VL: EIVLTQSPSSLSASVGDRVTISCRASRTVGTFLNWYQQRPGKPPQALILGVSILEGGVSSRFSGAGSGTEFSLTISSLQPEDIGTYYCQQSHDVPRTFGQGTKVDLR ; retrieve measured EC50.
Solution: 0.473
